Experiment: Lipophilicity, log P of the compound
Assay type: physicochemical
Conditions: octanol/water
assay endpoint: logP
Lab note: record just the number, no unit beside it.

Quote logP reported for `CCC1=C(O)c2c(oc(-c3csc4cc(N)ccc34)cc2=O)C(CC)(CC)C1=O` please. 2.11
